Values were extracted from ChEMBL document CHEMBL4177696.

Tested on: Staphylococcus aureus
assay_explanation: Antibacterial activity against Staphylococcus aureus measured after 24 hrs
Format: functional
readout: log10(MIC) (log10 of the value in µg/mL)
Transform log10 | Measure MIC | Unit µg/mL

Below: 10 compounds and their reported log10(MIC).
| compound | target_entity | log10(MIC) |
| --- | --- | --- |
| COC(=O)[C@]1(C)CCC[C@]2(C)c3ccc(C(C)C)c(NC(=O)Cn4cc(C5CC5)nn4)c3CC[C@@H]12 | Staphylococcus aureus | 1.70 |
| COC(=O)[C@]1(C)CCC[C@]2(C)c3ccc(C(C)C)c(NC(=O)Cn4cc(-c5cccc(Cl)c5)nn4)c3CC[C@@H]12 | Staphylococcus aureus | 1.70 |
| COC(=O)[C@]1(C)CCC[C@]2(C)c3ccc(C(C)C)c(NC(=O)Cn4cc([Si](C)(C)C)nn4)c3CC[C@@H]12 | Staphylococcus aureus | 1.88 |
| CC(C)(C)C(=O)OC[C@H]1[C@H](O)CC[C@]2(C)c3ccccc3CC[C@@H]12 | Staphylococcus aureus | 1.40 |
| COc1c(C(C)C)ccc2c1CC[C@@]1(O)C3=C(CC[C@]21C)C(=O)OC3 | Staphylococcus aureus | 2.00 |
| COc1ccc(COC[C@H]2[C@H](O)CC[C@]3(C)c4cccc(OC)c4CC[C@@H]23)cc1 | Staphylococcus aureus | 1.40 |
| COC(=O)c1ccc(-c2cn(CC(=O)Nc3c(C(C)C)ccc4c3CC[C@H]3[C@](C)(C(=O)OC)CCC[C@]43C)nn2)cc1 | Staphylococcus aureus | 1.10 |
| COC(=O)[C@]1(C)CCC[C@@]2(C)[C@H]1CC=C1[C@@H]2CC[C@](O)(C(C)C)[C@H]1O | Staphylococcus aureus | 1.88 |
| COc1c(C(C)C)ccc2c1CC[C@H]1C3=C(CC[C@]21CO)C(=O)OC3 | Staphylococcus aureus | 1.70 |
| COC(=O)[C@]1(C)CCC[C@]2(C)c3ccc(C(C)C)c(NC(=O)Cn4cc(-c5cccc(NC(=O)OC(C)(C)C)c5)nn4)c3CC[C@@H]12 | Staphylococcus aureus | 0.80 |

Go through the items and report each one's log10(MIC).
1. COC(=O)[C@]1(C)CCC[C@]2(C)c3ccc(C(C)C)c(NC(=O)Cn4cc(-c5nc(Cl)nc(Cl)n5)nn4)c3CC[C@@H]12
2. COc1c(C(C)C)ccc2c1CC[C@H]1C(=O)CCC[C@]21CO[N+](=O)[O-]
3. C[C@]12CC=C3C(=O)OC[C@@H]3[C@@H]1CCc1ccccc12
4. COC(=O)[C@]1(C)CCC[C@]2(C)c3ccc(C(C)C)c(NC(=O)Cn4cc(-c5ccc(F)cc5)nn4)c3CC[C@@H]12
5. COC(=O)[C@]1(C)CCC[C@]2(C)c3ccc(C(C)C)c(NC(=O)Cn4cc(-c5ccccc5)nn4)c3CC[C@@H]12
6. CC(C)c1ccc2c(c1)CC[C@H]1[C@](C)(C(=O)O)CCC[C@]21C [DEHYDROABIETIC ACID]

1. 1.10
2. 1.70
3. 1.70
4. 1.70
5. 1.70
6. 1.40
